The reported numbers originate from paper PMC11480844.

Consider the following variants and their measured ratio to parent readings.
B1: H2-Kb / B15 (parent complex)
chain 1: QQQVRQSPQSLTVWEGETAILNCSYENSAFDYFPWYQQFPGEGPALLISILSVSDKKEDGRFTIFFNKREKKLSLHIADSQPGDSATYFCAASAASNNRLTLGKGTQVVVLP
chain 2: DSGVVQSPRHIIKEKGGRSVLTCIPISGHSNVVWYQQTLGKELKFLIQHYEKVERDKGFLPSRFSVQQFDDYHSEMNMSALELEDSAMYFCASSRRADAEQFFGPGTRLTVL
chain 3: not shown
chain 4: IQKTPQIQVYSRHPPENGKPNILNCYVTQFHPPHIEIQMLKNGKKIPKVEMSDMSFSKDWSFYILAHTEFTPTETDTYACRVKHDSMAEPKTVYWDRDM
chain 5: SIINFEKL

- Variants of: B1
- PROCEDURE_SUMMARY: % of reporter cells activated (NFAT-GFP), raw; note: test concentration or dose not given here
Lab note: record just the number, no unit beside it.

Solved entries:
chain 5 I3F: 0.0424
chain 5 K7R: 0.928
chain 5 I2P: 0.772

In the following, a different variant is considered.
query: Please report the recorded ratio to parent for chain 5 E6Y .
result: 0.15
